# target_or_system: human RXFP1 (Homo sapiens, UniProt Q9HBX9)
# Sequence (Q9HBX9 whole entry): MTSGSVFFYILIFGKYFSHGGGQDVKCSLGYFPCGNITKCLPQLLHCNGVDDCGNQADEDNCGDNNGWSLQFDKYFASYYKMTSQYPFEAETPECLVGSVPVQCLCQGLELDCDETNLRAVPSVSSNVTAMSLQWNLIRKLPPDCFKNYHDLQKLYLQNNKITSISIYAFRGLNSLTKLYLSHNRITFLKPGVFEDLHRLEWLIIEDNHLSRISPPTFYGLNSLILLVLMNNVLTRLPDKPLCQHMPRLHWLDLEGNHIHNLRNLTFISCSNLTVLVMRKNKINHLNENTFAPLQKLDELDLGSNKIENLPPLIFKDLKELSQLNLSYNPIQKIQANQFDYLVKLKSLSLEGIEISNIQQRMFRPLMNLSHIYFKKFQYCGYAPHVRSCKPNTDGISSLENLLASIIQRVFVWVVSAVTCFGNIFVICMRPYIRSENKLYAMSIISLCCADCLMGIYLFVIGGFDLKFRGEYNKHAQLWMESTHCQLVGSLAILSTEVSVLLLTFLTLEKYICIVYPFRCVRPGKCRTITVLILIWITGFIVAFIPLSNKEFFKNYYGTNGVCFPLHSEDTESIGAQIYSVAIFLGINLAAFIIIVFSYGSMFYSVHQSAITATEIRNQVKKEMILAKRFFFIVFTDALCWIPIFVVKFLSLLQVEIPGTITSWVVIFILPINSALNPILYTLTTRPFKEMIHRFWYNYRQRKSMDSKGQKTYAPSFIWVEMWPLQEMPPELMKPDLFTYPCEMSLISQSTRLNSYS
# measurement_description: human RXFP1 (hRXFP1) HEK293 cAMP assay (HTRF)
# experimental_setup: HEK293 cells stably expressing human RXFP1, 30 min at room temperature
measured_endpoint: pEC50
Interpret pEC50 as the negative base-10 log of the concentration measured in mol/L.

Solved cases below.
>>> quantitative_result("COc1ncc(-c2cc([C@H](OC(=O)NC3CCC3)C(F)(F)F)ccc2F)cc1C(=O)N[C@@H]1C2CCC(/C2=C/CCC(F)(F)F)[C@@H]1C(=O)Nc1ccc(F)c(C(F)(F)F)c1 (stereo partly drawn)")
8.28
>>> quantitative_result("COc1cc2c(cc1C(=O)N[C@H]1[C@@H](C(=O)Nc3ccc(F)c(C(F)(F)F)c3)[C@H]3CC[C@@H]1/C3=C\\C1CC1)CN(CCS(C)(=O)=O)CC2")
6.48
>>> quantitative_result("CC1Cc2cc(C3=NOC4CC(CO)CC34)cc(C(=O)N[C@@H]3C4CCC(/C4=C/C4CC4)[C@@H]3C(=O)N[C@H](C)C3(C)CC3)c2O1 (stereo partly drawn)")
8.05

What value of measured pEC50 is listed for COc1cscc1C(=O)N[C@@H]1C2CCC(C2=C(C)C)[C@@H]1C(=O)Nc1ccc(F)c(C(F)(F)F)c1 (stereo partly drawn) ?
5.85

Request: COc1ncc(-c2cc(C(=O)O)ccc2F)nc1C(=O)N[C@@H]1C2CCC(C2=C(C)C)[C@@H]1C(=O)Nc1ccc(F)c(C(F)(F)F)c1 (stereo partly drawn)
6.00

Param item: COc1ncc(-c2cnc3n2CC(O)CC3)cc1C(=O)N[C@H]1[C@@H](C(=O)Nc2ccc(F)c(C(F)(F)F)c2)[C@H]2CC[C@@H]1/C2=C\C1CC1 (stereo partly drawn) [Example 102]
8.60
